Each entry below lists one item and its recorded log10 of Kd value.
# testedSystem: T1, monovalent hVISTA-ECD with polyhistidine tail (SEQ ID NO: 325) (human, UniProt Q9H7M9 33-193)
# T1 construct: also called hVISTA-ECD 6-His tag; human VISTA
# T1 sequence (Q9H7M9 other isoform, or with tags, fused parts or gaps limits assumed): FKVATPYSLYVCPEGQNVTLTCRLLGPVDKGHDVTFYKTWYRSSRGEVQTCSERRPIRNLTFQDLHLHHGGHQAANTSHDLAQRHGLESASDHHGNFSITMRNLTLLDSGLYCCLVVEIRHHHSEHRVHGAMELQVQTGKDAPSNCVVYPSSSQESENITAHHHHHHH
# test: SPR, mAb captured on Protein A chip, hVISTA injected, PBST pH 6.0, 37 C
For clarity, the numbers are log10 values of Kd expressed in nM.

Recorded log10 of Kd, per entry:
INSERT INTO measurements (binder, valuereported) VALUES
  ('P1-068748 (antibody, V domains shown, captured on a Protein A chip) VH: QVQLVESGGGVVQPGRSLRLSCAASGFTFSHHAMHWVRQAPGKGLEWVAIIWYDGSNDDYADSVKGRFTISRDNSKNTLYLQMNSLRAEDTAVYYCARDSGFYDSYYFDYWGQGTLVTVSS VL: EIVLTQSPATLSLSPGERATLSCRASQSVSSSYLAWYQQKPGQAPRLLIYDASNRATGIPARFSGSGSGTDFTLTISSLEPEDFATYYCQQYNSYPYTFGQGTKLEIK', 1.04),
  ('P1-077875 (P1-068748 H31S H32Y) (antibody, V domains shown, Reversion mutant of P1-068748 (Kabat names); captured on a Protein A chip) VH: QVQLVESGGGVVQPGRSLRLSCAASGFTFSSYAMHWVRQAPGKGLEWVAIIWYDGSNDDYADSVKGRFTISRDNSKNTLYLQMNSLRAEDTAVYYCARDSGFYDSYYFDYWGQGTLVTVSS VL: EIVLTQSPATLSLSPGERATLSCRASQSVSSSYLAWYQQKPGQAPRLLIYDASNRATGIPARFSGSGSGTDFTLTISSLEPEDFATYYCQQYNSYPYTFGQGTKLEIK', -0.03),
  ('P1-077883 (P1-068748 H31S D57K) (antibody, V domains shown, Reversion mutant of P1-068748 (Kabat names); captured on a Protein A chip) VH: QVQLVESGGGVVQPGRSLRLSCAASGFTFSSHAMHWVRQAPGKGLEWVAIIWYDGSNKDYADSVKGRFTISRDNSKNTLYLQMNSLRAEDTAVYYCARDSGFYDSYYFDYWGQGTLVTVSS VL: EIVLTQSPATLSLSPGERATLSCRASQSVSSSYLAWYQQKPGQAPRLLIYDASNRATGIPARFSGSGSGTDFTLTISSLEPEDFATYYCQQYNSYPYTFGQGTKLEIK', 0.83),
  ('P1-077893 (P1-068748 D57K D100S) (antibody, V domains shown, Reversion mutant of P1-068748 (Kabat names); the antibody was captured on a Protein A chip, so an Fc was present) VH: QVQLVESGGGVVQPGRSLRLSCAASGFTFSHHAMHWVRQAPGKGLEWVAIIWYDGSNKDYADSVKGRFTISRDNSKNTLYLQMNSLRAEDTAVYYCARDSGFYSSYYFDYWGQGTLVTVSS VL: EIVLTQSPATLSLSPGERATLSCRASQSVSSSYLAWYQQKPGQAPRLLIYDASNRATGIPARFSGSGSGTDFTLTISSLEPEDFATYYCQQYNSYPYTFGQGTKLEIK', -0.37),
  ('P1-077865 (P1-068748 H31S) (antibody, V domains shown, Reversion mutant of P1-068748 (Kabat names); captured on a Protein A chip) VH: QVQLVESGGGVVQPGRSLRLSCAASGFTFSSHAMHWVRQAPGKGLEWVAIIWYDGSNDDYADSVKGRFTISRDNSKNTLYLQMNSLRAEDTAVYYCARDSGFYDSYYFDYWGQGTLVTVSS VL: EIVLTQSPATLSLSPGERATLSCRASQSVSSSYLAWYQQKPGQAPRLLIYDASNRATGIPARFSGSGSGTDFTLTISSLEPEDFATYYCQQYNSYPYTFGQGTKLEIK', 0.72);

Endpoint output: log10 of Kd of P1-077887 (P1-068748 H31S D100S) (antibody, V domains shown, Reversion mutant of P1-068748 (Kabat names); captured on a Protein A chip) VH: QVQLVESGGGVVQPGRSLRLSCAASGFTFSSHAMHWVRQAPGKGLEWVAIIWYDGSNDDYADSVKGRFTISRDNSKNTLYLQMNSLRAEDTAVYYCARDSGFYSSYYFDYWGQGTLVTVSS VL: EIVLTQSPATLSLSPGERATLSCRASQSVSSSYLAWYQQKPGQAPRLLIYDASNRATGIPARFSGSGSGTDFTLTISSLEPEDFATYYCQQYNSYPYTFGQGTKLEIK . Value? -0.28

Entry P1-077873 (P1-068748 D100S) (antibody, V domains shown, Reversion mutant of P1-068748 (Kabat names); captured on a Protein A chip) VH: QVQLVESGGGVVQPGRSLRLSCAASGFTFSHHAMHWVRQAPGKGLEWVAIIWYDGSNDDYADSVKGRFTISRDNSKNTLYLQMNSLRAEDTAVYYCARDSGFYSSYYFDYWGQGTLVTVSS VL: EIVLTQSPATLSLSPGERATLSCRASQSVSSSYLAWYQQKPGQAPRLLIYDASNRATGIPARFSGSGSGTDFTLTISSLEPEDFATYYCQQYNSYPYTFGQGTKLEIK : reported log10 of Kd = ? -0.15
